These entries and their values trace back to ChEMBL document CHEMBL5608182.

- system-under-test: Gamma-aminobutyric acid receptor subunit alpha-4/beta3/delta (Homo sapiens, UniProt O14764+P28472+P48169)
- Sequence (P28472 whole entry): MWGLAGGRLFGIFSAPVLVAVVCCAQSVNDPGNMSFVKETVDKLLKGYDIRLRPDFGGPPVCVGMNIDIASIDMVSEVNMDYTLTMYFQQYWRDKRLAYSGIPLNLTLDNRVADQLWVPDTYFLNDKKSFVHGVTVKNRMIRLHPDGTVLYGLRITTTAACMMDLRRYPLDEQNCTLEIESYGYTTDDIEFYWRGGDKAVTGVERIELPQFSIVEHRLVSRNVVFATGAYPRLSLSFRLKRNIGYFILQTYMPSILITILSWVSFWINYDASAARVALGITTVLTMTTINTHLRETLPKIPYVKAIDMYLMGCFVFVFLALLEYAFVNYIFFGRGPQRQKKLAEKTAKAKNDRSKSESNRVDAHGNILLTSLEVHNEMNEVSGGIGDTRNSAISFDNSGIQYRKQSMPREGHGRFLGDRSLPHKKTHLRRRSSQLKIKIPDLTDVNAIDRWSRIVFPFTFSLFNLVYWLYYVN
- Sequence (P48169 whole entry): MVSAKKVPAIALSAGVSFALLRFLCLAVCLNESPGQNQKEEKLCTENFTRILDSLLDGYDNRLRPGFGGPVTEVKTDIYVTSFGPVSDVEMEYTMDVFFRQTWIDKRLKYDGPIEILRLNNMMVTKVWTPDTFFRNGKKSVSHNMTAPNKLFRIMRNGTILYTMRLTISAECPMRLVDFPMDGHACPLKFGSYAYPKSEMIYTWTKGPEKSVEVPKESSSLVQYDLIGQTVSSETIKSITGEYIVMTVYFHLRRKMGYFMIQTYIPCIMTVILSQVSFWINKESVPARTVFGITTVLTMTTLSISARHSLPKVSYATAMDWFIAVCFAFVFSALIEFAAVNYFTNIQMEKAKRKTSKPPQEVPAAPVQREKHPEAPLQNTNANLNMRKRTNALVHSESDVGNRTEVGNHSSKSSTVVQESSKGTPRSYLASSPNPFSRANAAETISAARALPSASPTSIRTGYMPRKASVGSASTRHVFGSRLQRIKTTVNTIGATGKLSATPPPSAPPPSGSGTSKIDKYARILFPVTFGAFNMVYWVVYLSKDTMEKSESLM
- Sequence (O14764 whole entry): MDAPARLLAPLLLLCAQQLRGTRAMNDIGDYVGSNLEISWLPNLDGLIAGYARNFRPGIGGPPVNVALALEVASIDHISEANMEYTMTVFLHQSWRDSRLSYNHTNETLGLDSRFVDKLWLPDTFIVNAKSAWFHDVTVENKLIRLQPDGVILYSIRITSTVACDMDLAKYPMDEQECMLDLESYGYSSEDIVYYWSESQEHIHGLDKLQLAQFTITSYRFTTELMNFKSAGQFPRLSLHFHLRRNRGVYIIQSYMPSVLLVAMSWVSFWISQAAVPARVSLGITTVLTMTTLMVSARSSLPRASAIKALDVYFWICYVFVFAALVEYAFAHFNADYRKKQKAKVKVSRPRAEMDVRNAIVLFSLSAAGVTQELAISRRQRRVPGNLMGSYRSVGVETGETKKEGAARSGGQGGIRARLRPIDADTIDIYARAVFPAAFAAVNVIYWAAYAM
- assay-remarks: Positive allosteric modulation of extrasynaptic alpha4beta3delta GABA-A receptor (unknown origin) transfected in CHO cells assessed as potentiation of GABA-induced peak current amplitude at -80 mV holding potential preincubated for 30 secs followed by GABA stimulation for 2 secs by manual patch assay
What EC50 was measured for each of the following?
Please state the value followed by its unit.

IN: Can you share its EC50? I mean this compound: `C[C@@]1(O)CC[C@H]2[C@H](CC[C@@H]3[C@@H]2CC[C@]2(C)[C@@H](C(=O)Cn4cnn(-c5cccc(F)c5)c4=O)CC[C@@H]32)C1`
OUT: 0.01 µM

IN: Give its EC50 value. Item: `C[C@@]1(O)CC[C@H]2[C@H](CC[C@@H]3[C@@H]2CC[C@]2(C)[C@@H](C(=O)Cn4cnn(-c5cc(F)cc(F)c5)c4=O)CC[C@@H]32)C1`
OUT: 0.035 µM

IN: # query: EC50 of entry `C[C@@]1(O)CC[C@H]2[C@H](CC[C@@H]3[C@@H]2CC[C@]2(C)[C@@H](C(=O)Cn4cnn(-c5cc(F)ccn5)c4=O)CC[C@@H]32)C1`
OUT: 0.068 µM

IN: I have this compound here, `C[C@@]1(O)CC[C@H]2[C@H](CC[C@@H]3[C@@H]2CC[C@]2(C)[C@@H](C(=O)Cn4cnn(-c5ccc(F)cc5)c4=O)CC[C@@H]32)C1` , and I need its recorded EC50.
OUT: 0.17 µM

---

- system-under-test: GABA-A receptor; alpha-1/beta-2/gamma-2 (Homo sapiens) (UniProt P14867+P47870+P18507)
- assay-remarks: Positive allosteric modulation of synaptic alpha1beta2gamma2 GABA-A receptor (unknown origin) transfected in LTK cells assessed as potentiation of GABA-induced peak current amplitude by measuring maximal efficacy at 0.01 to 10 uM at -80 mV holding potential preincubated for 30 secs followed by GABA stimulation for 2 secs by Q-patch assay relative to control
- Format: cell-based
- condition-description: filed as positive allosteric modulator, dose 0.01-10 µM, time 32.0 sec
readout-name: Emax (%)
Answer format: numeric, % implied, no suffix.

IN: Can you look up the measured Emax of `C[C@@]1(O)CC[C@H]2[C@H](CC[C@@H]3[C@@H]2CC[C@]2(C)[C@@H](C(=O)Cn4cnn(-c5cncc(F)c5)c4=O)CC[C@@H]32)C1` for me?
OUT: 618

IN: Endpoint output: Emax of `COc1cccc(-n2ncn(CC(=O)[C@H]3CC[C@H]4[C@@H]5CC[C@@H]6C[C@](C)(O)CC[C@@H]6[C@H]5CC[C@]34C)c2=O)c1` . Value?
OUT: 410

IN: Any idea what Emax was measured for `C[C@@]1(O)CC[C@H]2[C@H](CC[C@@H]3[C@@H]2CC[C@]2(C)[C@@H](C(=O)Cn4cnn(-c5cc(F)cc(F)c5)c4=O)CC[C@@H]32)C1` ?
OUT: 1040

IN: Could you tell me which Emax is on file for `C[C@@]1(O)CC[C@H]2[C@H](CC[C@@H]3[C@@H]2CC[C@]2(C)[C@@H](C(=O)Cn4cnn(-c5cccc(F)n5)c4=O)CC[C@@H]32)C1` ?
OUT: 724

IN: Entry under review: `C[C@@]1(O)CC[C@H]2[C@H](CC[C@@H]3[C@@H]2CC[C@]2(C)[C@@H](C(=O)Cn4cnn(-c5nccs5)c4=O)CC[C@@H]32)C1` . Reported Emax?
OUT: 763

IN: Recorded Emax for `C[C@@]1(O)CC[C@H]2[C@H](CC[C@@H]3[C@@H]2CC[C@]2(C)[C@@H](C(=O)Cn4cnn(-c5cc(F)nc(F)c5)c4=O)CC[C@@H]32)C1` , please?
OUT: 675

IN: Which Emax is reported for this molecule? `CC(C)(C)n1ncn(CC(=O)[C@H]2CC[C@H]3[C@@H]4CC[C@@H]5C[C@](C)(O)CC[C@@H]5[C@H]4CC[C@]23C)c1=O`
OUT: 806

---

- system-under-test: Gamma-aminobutyric acid receptor subunit alpha-4/beta3/delta (Homo sapiens) (UniProt P28472+P48169+O14764)
- assay-remarks: Positive allosteric modulation of extrasynaptic alpha4beta3delta GABA-A receptor (unknown origin) transfected in CHO cells assessed as potentiation of GABA-induced peak current amplitude by measuring maximal efficacy at 0.01 to 10 uM at -80 mV holding potential preincubated for 30 secs followed by GABA stimulation for 2 secs by manual patch assay relative to control
- Format: cell-based
- condition-description: filed as positive allosteric modulator, dose 0.01-10 µM, time 32.0 sec
readout-name: Emax (%)
Kindly provide the numeric value in % only, without the unit symbol.

IN: Entry `C[C@@]1(O)CC[C@H]2[C@H](CC[C@@H]3[C@@H]2CC[C@]2(C)[C@@H](C(=O)Cn4cnn(C5CCCCC5)c4=O)CC[C@@H]32)C1` : reported Emax = ?
OUT: 685

IN: Entry under review: `C[C@@]1(O)CC[C@H]2[C@H](CC[C@@H]3[C@@H]2CC[C@]2(C)[C@@H](C(=O)Cn4cnn(-c5cc(F)nc(F)c5)c4=O)CC[C@@H]32)C1` . Reported Emax?
OUT: 1070

IN: Would you kindly share the measured Emax for `C[C@@]1(O)CC[C@H]2[C@H](CC[C@@H]3[C@@H]2CC[C@]2(C)[C@@H](C(=O)Cn4cnn(CC(F)(F)F)c4=O)CC[C@@H]32)C1` ?
OUT: 1280

IN: Given the entry `CCn1ncn(CC(=O)[C@H]2CC[C@H]3[C@@H]4CC[C@@H]5C[C@](C)(O)CC[C@@H]5[C@H]4CC[C@]23C)c1=O` , report its measured Emax.
OUT: 526

IN: GET /values?readout=Emax&item= `COc1cccc(-n2ncn(CC(=O)[C@H]3CC[C@H]4[C@@H]5CC[C@@H]6C[C@](C)(O)CC[C@@H]6[C@H]5CC[C@]34C)c2=O)c1`
OUT: 570

IN: Return reported Emax; argument: `C[C@@]1(O)CC[C@H]2[C@H](CC[C@@H]3[C@@H]2CC[C@]2(C)[C@@H](C(=O)Cn4ccn(-c5cccc(F)c5)c4=O)CC[C@@H]32)C1`
OUT: 552

IN: Which Emax is reported for this molecule? `C[C@@]1(O)CC[C@H]2[C@H](CC[C@@H]3[C@@H]2CC[C@]2(C)[C@@H](C(=O)Cn4cnn(-c5cccc(N)c5)c4=O)CC[C@@H]32)C1`
OUT: 1070

IN: What value of measured Emax is listed for `C[C@@]1(O)CC[C@H]2[C@H](CC[C@@H]3[C@@H]2CC[C@]2(C)[C@@H](C(=O)Cn4cnn(-c5cccc(F)c5)c4=O)CC[C@@H]32)C1` ?
OUT: 440

IN: May I ask what Emax has been recorded for `C[C@@]1(O)CC[C@H]2[C@H](CC[C@@H]3[C@@H]2CC[C@]2(C)[C@@H](C(=O)Cn4cnn(-c5cccc(F)n5)c4=O)CC[C@@H]32)C1` ?
OUT: 966

IN: I'd like to know its Emax. The molecule in question is `C[C@@]1(O)CC[C@H]2[C@H](CC[C@@H]3[C@@H]2CC[C@]2(C)[C@@H](C(=O)Cn4cnn(-c5cc(F)cc(F)c5)c4=O)CC[C@@H]32)C1`
OUT: 441

IN: Query (molecule): `C[C@@]1(O)CC[C@H]2[C@H](CC[C@@H]3[C@@H]2CC[C@]2(C)[C@@H](C(=O)Cn4cnn(-c5ccc(F)cc5F)c4=O)CC[C@@H]32)C1` ; field requested: Emax
OUT: 542

IN: Endpoint output: Emax of `C[C@@]1(O)CC[C@H]2[C@H](CC[C@@H]3[C@@H]2CC[C@]2(C)[C@@H](C(=O)Cn4cnn(-c5ccnc(F)c5)c4=O)CC[C@@H]32)C1` . Value?
OUT: 913

IN: Report Emax for `C[C@@]1(O)CC[C@H]2[C@H](CC[C@@H]3[C@@H]2CC[C@]2(C)[C@@H](C(=O)Cn4cnn(-c5ccccc5F)c4=O)CC[C@@H]32)C1` please.
OUT: 541

IN: Which Emax reading was recorded for the molecule `C[C@@]1(O)CC[C@H]2[C@H](CC[C@@H]3[C@@H]2CC[C@]2(C)[C@@H](C(=O)Cn4cnn(-c5cccc(OC(F)(F)F)c5)c4=O)CC[C@@H]32)C1` ?
OUT: 1580

IN: Consider the molecule shown here: `C[C@@]1(O)CC[C@H]2[C@H](CC[C@@H]3[C@@H]2CC[C@]2(C)[C@@H](C(=O)Cn4cc(C#N)cn4)CC[C@@H]32)C1` What is its recorded Emax?
OUT: 1040

IN: Using the record for `C[C@@]1(O)CC[C@H]2[C@H](CC[C@@H]3[C@@H]2CC[C@]2(C)[C@@H](C(=O)Cn4cnn(-c5cncc(F)c5)c4=O)CC[C@@H]32)C1` , report its Emax.
OUT: 601

IN: Can you look up the measured Emax of `C[C@@]1(O)CC[C@H]2[C@H](CC[C@@H]3[C@@H]2CC[C@]2(C)[C@@H](C(=O)Cn4cnn(C5CCCC5)c4=O)CC[C@@H]32)C1` for me?
OUT: 830
